Target: T1, gH/gL/UL128/UL130/UL131A pentamer complex expressed from MVA-PC in BHK-21 cells (human cytomegalovirus, UniProt P12824 24-743; P16832 31-278; P16837 28-171; P16772 1-214; F5HET4 19-129)
T1 construct: whole, on cells
Assay: FC competition, MVA-PC BHK-21; unlabelled row Ab; competitor: biotinylated 12E2
Property Measured: Binding Inhibition (%)

// worked examples, Binding Inhibition (%) included
Binder	Binding Inhibition (%)
13B5 (antibody, V domains shown, also called NAb 13B5; 1365) VH: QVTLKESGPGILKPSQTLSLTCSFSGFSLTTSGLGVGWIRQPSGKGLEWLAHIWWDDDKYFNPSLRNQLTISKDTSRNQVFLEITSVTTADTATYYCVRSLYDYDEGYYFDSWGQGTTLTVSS VL: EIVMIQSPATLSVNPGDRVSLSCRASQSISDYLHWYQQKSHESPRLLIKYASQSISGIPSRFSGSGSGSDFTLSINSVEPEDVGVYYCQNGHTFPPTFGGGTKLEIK	0%
1B2 (antibody, V domains shown, also called NAb 1B2) VH: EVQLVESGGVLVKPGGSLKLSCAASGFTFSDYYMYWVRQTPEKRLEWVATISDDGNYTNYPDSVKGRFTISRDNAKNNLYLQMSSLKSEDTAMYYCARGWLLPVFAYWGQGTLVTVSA VL: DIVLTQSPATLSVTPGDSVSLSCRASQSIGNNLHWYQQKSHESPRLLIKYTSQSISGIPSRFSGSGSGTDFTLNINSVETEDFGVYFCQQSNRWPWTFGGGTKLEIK	100%
21F6 (antibody, V domains shown, also called NAb 21F6) VH: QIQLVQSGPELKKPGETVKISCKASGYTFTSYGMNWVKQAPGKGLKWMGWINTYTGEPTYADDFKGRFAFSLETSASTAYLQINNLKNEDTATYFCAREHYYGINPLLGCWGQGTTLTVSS VL: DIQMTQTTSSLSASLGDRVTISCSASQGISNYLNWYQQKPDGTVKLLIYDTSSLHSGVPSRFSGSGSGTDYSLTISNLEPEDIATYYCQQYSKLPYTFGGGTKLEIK	0%
18F10 (antibody, V domains shown, also called NAb 18F10) VH: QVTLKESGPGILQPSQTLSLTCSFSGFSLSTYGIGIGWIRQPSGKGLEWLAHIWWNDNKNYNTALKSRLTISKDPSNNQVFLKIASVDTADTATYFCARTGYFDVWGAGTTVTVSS VL: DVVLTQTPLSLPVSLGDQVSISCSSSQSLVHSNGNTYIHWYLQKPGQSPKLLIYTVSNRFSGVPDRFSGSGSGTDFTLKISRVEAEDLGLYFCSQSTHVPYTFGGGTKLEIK	0%

Provide reported Binding Inhibition (%) for each item, in the same order as listed.
1. 54E11 (antibody, V domains shown, also called NAb 54E11) VH: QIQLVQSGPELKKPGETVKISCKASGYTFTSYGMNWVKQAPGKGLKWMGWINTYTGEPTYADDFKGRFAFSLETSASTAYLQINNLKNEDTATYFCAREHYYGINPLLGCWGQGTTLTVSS VL: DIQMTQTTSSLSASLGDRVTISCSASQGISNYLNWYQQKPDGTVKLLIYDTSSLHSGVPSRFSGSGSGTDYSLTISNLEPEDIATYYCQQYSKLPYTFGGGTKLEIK
2. 12E2 (antibody, V domains shown, also called NAb 12E2) VH: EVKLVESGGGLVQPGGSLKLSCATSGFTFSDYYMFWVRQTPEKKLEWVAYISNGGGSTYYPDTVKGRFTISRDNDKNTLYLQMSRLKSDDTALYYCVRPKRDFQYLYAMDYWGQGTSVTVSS VL: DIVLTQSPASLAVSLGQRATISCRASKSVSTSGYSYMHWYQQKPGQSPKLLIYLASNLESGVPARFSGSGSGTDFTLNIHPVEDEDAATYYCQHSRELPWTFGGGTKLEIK

Marked response:
1. 0%
2. 100%
